# Lookup of reported pIC50 keyed by entry
Test target: T1, Biotin-hBA2 (human, biotinylated (sites not given))
T1 construct: hBA2 consists of two dimers; also called biotinylated hBA2; human bow-Ang2
T1 sequence (chain, as listed by the source limits assumed): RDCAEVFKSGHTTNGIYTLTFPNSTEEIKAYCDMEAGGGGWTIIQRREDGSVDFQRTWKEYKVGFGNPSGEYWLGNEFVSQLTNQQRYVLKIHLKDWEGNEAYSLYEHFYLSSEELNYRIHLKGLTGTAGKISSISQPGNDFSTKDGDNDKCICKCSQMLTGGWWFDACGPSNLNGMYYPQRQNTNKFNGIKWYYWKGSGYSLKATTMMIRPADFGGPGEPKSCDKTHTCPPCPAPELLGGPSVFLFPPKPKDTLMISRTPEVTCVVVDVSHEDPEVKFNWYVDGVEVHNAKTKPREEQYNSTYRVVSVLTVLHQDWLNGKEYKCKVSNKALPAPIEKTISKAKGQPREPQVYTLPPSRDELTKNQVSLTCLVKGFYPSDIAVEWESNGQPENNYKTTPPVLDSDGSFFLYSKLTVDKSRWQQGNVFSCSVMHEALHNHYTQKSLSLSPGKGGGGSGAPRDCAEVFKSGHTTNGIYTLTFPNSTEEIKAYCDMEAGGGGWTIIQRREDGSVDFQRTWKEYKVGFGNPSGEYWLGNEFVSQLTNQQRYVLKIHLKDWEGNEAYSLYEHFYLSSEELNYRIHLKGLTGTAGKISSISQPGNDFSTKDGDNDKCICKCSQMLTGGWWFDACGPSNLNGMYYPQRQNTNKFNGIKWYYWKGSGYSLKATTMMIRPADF
Measurement description: blocking ELISA, biotin-hBA2 to hTie-2-His, mean of two experiments
pIC50: −log10 of the molar value.

Binder	pIC50
H2M744N (antibody, V domains shown, also called H1M744N; H1M744) VH: QVQLVQSGVEVKKPGASVKVSCKTSGYTFSNNGFSWVRQAPGQGLEWLGWISGYNGNTNYAQKFQGRVTMTTDTSTSTAYMELRTLRSDDTAVYYCARDQDYSNFHWLDPWGQGTLVTVAS VL: DIQMTQSPSSVSASVGDRVIITCRASQGLSSWLAWYQQKPGTAPKLLIHSASSLQTGVPSRFSGSGSGTEFALTINSLQPEDFGTYYCQQANSFPLTFGGGTRVEIK	10.94
H2M743N (antibody, V domains shown, also called H1M743N) VH: EVQLLESGGGLVQPGGSLRLSCAASGFTFRKYAMSWVRQAPGKGLEWVSVISVSGGNTYYADSVKGRFTISRDNSKNTLYLQLNSLRAEDTAVYYCAKDLTDIVLMVYVDYWGQGTLVTVSS VL: DIQMTQSPSSVSASVGDRVTITCRASQDIDRWLAWYQQKPGKAPKLLIYAASSLQSGVPSRFSGSGSGTDFTLTISTLQPEDFATYYCQQANSLPFTFGGGTKVEIK	10.96
H1M749N (antibody, V domains shown, also called H2M749N) VH: QVQLVESGGGVVQPGRSLRLSCAASGFTFSSYGMHWVRQAPGKGLEWVAVIWYDEFNKYYADSVKGRFTISRDNSKNTLYLQMNSLRAEDTAVYYCARERESGYSYGFDYWGQGTLVTVSS VL: EIVMTQSPATLSVSPGERATLSCRAGQSVSSNLAWYQQKPGQAPRLLIYGASTRATGIPARFSGSGSGTEFTLTISSLQSEDFAVYYCQQYNNWWTFGQGTKVEIK	11.19
H2M730N (antibody, V domains shown) VH: EVQLVESGGGLVQPGGSLRLSCAASGFAFRSYWMTWVRQAPGKGLEWVANIQQDGNDKYYVDSVKGRFTISRDNAKNSLYLQMNSLRAEDTAVYYCARDTGIAEAGPFDYWGQGTLVTVSS VL: DIQMTQSPSTLSASVGDRVSITCRASQTIISWLAWYQQKPGKAPRLLIYKASSLESGVPSRFSGSGSGTEFTLTINSLQPDDFATYYCQQYNRYWTFGQGTKVEIK	10.84
H1M728N (antibody, V domains shown) VH: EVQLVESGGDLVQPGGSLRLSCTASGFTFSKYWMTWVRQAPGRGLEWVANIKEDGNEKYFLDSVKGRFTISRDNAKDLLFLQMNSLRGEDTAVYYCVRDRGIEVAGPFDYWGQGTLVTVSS VL: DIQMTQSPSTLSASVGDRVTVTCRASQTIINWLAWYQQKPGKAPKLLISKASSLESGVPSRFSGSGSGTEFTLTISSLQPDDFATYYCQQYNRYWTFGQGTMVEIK	10.85
H1M724N (antibody, V domains shown) VH: QVQLVESGGGVVQPGRSLRLSCAASGFTLSNYGMHWVRQAPGKGLEWVAVIWHDGSNTYYADSVKGRFTISRDNSKNTLYLQMNSLRAEDTAVYYCTREGLDFWSGYYPNWFDPWGQGTLVTVSS VL: DIQMTQSPSSLSASVGDRVTITCRASQGIRNDLGWYQQKPGKAPKRLIYAASNLQGGVPSRFSGSGSGTEFTLTISSLQPEDFAAYYCLQHNIYPLTFGGGTKVEIK	11.01
H1M732N (antibody, V domains shown) VH: EVQLVESGGGLVRPGGSLRLSCAASGFTFTNAWMSWVRQAPGKGLEWIGQIKSKTDGGTIDYAAPVKGRFTVSRDDSENTLFLQMNSLKTEDTAVYYCAGNWNYVDFDYWGQGTLVTVSS VL: DIQMTQSPSSLSASVGDRVTITCRASQDIRNDLGWYQQKPGKAPKRLIYAASSLQGGVPSRFSGSGSGTEFTLTISSLQPEDFATYYCLQHNSYPFTFGPGTKVDIK	10.09
H2M750N (antibody, V domains shown, also called H1M750N; H1M750) VH: QVKLVESGGGVVQPGRSLRVSCAASGFTFSSYGMHWVRQAPGKGLEWLAIIWYDGDNKYYSDSVKGRFTISRDNSKNTLYLQMNSLRAEDTAEYYCVRDASIASRFLDYWGQGTLVTVSS VL: DIQMTQSPSSLSASIGDRVTITCRATQDINNYLAWFQQKPGKAPKSLIYATSNLQSGVPSKFSGSGSGTDYTLTISSLQPEDFSTYYCQQYHSYPLTFGGGTKVEIK	11.05
H2M742N (antibody, V domains shown, also called H1M742N) VH: DVQLLESGGDLVQPGGSLRLSCEASGFTFRNYVMIWVRQAPGKGLEWVSGISNSGGTTHYTDSVKGRFTISRDNSKNTLYLQINSLRAEDTAVYYCAKGYLDTSLIEGNWFDPWGQGTLVTVSS VL: NIVMTQSPLSLPVTPGEPASISCRSSQSLLHSNGFNYLNWFLQKPGQSPQLLIYLGSNRASGVPDKFSGSGSGTDFTLNINRVEAEDVGIYFCMQTLQTPLTFGGGTKVEIK	11.02
